# system-tested: Full-length (FL)-PRMT5-MEP50 enzyme complex (Homo sapiens, UniProt O14744)
# Construct: 1.25 nM of Full-length (FL)-PRMT5-MEP50 enzyme complex; made in house; host or cells: baculovirus-transfected Sf21 cells
# Sequence (O14744 whole entry): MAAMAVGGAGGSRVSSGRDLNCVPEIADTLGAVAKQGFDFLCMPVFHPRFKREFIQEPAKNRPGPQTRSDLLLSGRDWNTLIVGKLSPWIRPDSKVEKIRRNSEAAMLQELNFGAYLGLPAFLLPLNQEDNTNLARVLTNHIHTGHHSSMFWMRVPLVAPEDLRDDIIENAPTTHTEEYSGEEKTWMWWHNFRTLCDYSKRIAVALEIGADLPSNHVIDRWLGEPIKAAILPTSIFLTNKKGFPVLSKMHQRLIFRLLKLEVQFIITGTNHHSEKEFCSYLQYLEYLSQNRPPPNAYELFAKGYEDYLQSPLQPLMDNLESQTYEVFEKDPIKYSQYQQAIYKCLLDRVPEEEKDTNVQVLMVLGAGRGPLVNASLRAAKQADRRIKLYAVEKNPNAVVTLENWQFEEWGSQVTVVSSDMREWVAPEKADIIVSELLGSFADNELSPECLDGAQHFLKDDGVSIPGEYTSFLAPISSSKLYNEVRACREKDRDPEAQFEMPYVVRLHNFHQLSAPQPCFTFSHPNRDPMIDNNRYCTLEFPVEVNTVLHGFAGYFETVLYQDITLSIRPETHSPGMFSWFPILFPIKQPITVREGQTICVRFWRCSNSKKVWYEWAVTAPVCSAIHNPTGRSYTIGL
# Sequence (Q9BQA1 whole entry partner): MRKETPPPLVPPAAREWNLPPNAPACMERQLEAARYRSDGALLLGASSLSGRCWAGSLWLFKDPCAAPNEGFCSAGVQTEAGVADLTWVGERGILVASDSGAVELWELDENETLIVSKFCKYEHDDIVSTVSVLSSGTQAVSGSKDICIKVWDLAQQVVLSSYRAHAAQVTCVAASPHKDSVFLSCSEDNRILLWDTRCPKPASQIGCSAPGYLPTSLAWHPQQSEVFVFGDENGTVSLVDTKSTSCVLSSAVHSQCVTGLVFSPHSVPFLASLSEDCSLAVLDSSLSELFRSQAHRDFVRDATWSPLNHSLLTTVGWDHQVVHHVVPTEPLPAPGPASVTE
# experimental-protocol: PRMT5-MEP50 Enzyme Methylation Assay
# Type: biochemical
# condition-context: first value of 7 parameter biphasic fit; 1.0 nM PRMT5-MEP50, 75 nM biotinylated H4R3(Me1) peptide, 15 μM SAM, 60 min pre-incubation, 150 min at 37° C.; read-out: Enzyme Methylation Assay EC50_1
Counter-ions that a name gives are not always drawn.
endpoint: pEC50
Lab note — pEC50 values are minus log10 of concentrations in M.

Would you please look over these solved cases?
Nc1nc2cc(OC[C@H]3O[C@@H](n4cnc(N)c5ncnc4-5)[C@H](O)[C@@H]3O)ccc2cc1Br; 8.86
Cc1ccn([C@@H]2C[C@H](CCc3ccc4cc(Br)c(N)nc4c3)[C@@H](O)[C@H]2O)c2ncnc1-2; 9.49
Cc1ncn([C@@H]2C[C@H](CCc3ccc4cc(Br)c(N)nc4c3)[C@@H](O)[C@H]2O)c2ncnc1-2; 9.55

Problem: May I ask what pEC50 has been recorded for "Nc1ccn([C@@H]2O[C@H](COc3ccc4cc(Br)c(N)nc4c3)[C@@H](O)[C@H]2O)c2ncnc1-2" ?
Result: 9.18

Problem: May I ask what pEC50 has been recorded for "Cc1ccn([C@@H]2O[C@H](CCc3ccc4cc(Br)c(N)nc4c3)[C@@H](O)[C@H]2O)c2ncnc1-2" ?
Result: 9.24

Problem: May I ask what pEC50 has been recorded for CCc1cc2ncnc-2n([C@@H]2C[C@H](CCc3ccc4cc(Br)c(N)nc4c3)[C@@H](O)[C@H]2O)c1 [Example 11, trifluoroacetate] ?
Result: 9.02

Problem: May I ask what pEC50 has been recorded for "Nc1ccn([C@@H]2C[C@H](CCc3ccc4cc(Br)c(N)nc4c3)[C@@H](O)[C@H]2O)c2ncnc1-2" ?
Result: 9.31
